- Tested on: velvetleaf (Abutilon theophrasti)
- measurement notes: Test C postemergence
- Type: in vivo
- test conditions: Abutilon theophrasti, post-emergence; Postemergence, 31 g ai/ha, scale 0 to 100; read-out: Plant response rating, Velvetleaf
As shown below, each of these compounds has a reported pest or weed control at 31 g/ha value.
readout kind: pest or weed control at 31 g/ha (%)

                                   compound  units_symbol  observed_result
0  N#Cc1cccc(Oc2ncc(Cl)cn2)c1Oc1ccc(Cl)cn1 [Compound 16]             %               65
1  Fc1cnc(Oc2c(Cl)cccc2Oc2ncc(Cl)cn2)nc1 [Compound 18]             %               45
2  Fc1ccc(F)c(Oc2ncc(Cl)cn2)c1Oc1ncc(Cl)cn1 [Compound 34]             %               60
3  N#Cc1cccc(Oc2ncc(Cl)cn2)c1Oc1ncc(Cl)cn1 [Compound 3]             %               35
